Listing of recorded koff by entry.
# ASSAY SYSTEM: recombinant human CD38 (human, UniProt P28907 43-300, limits assumed)
# TEST DESCRIPTION: SPR (Biacore 8K), antibody captured, antigen injected;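 also: antibodies held on a CM5 chip through anti-human IgG Fc, antigen in 3-fold serial dilutions, 1 min association then 10 min dissociation at 25 °C, 1:1 Langmuir global fit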

BINDER: 27F6 (antibody, human IgG1, kappa, V domains shown, Rabbit-human chimeric anti-CD38: rabbit VH and VL on human IgG1 and kappa constant regions) VH: QSLEESGGGLVKPGASLTLTCKASGFSFSSGCDMCWVRQAPGKGLEWISCIYTGSGSTYYANWAKGRFTISRTSSTTVTLQMTSLTAADTATYFCAGDSDYLGLWGPGTLVTVSS VL: DIVMTQTPSSVEAAVGGTVTIKCQASQNIGNYLAWYQQKPGQPPKVLIYRASTLASGVPSRFKGSGSGTHFTLTISDLESADAATYYCQSYYYTTDDNYRSWAFGGGTEVVVKR
koff / s⁻¹: 0.000117
//
BINDER: 1E2 (antibody, human IgG1, kappa, V domains shown, Rabbit-human chimeric anti-CD38: rabbit VH and VL on human IgG1 and kappa constant regions) VH: QSVEESGGRLVTPGTPLTLTCTVSGIDLNSYAMGWVRQAPGKGLKYIGIMTSGGNIYYANWAKGRFTISKTSTTVDLRITSPTTEDTATYFCAREREFYGGGTSGSRLDLWGQGTLVTVSS VL: AYDMTQTPASVEAAVGGTVTIKCQASQSIYNFLNWYQQKPGQPPKLLIYYASTLAFGVPSRFKGSGSGTEYTLTISGVESADAATYYCQQGWNSGILDNSFGGGTEVVVKR
koff / s⁻¹: 0.000388
//
BINDER: 25C3 (antibody, human IgG1, kappa, V domains shown, Rabbit-human chimeric anti-CD38: rabbit VH and VL on human IgG1 and kappa constant regions) VH: QEQLEESGGDLVKPGASLTLTCKASGFSFSSAYDMCWVRQAPGKGLEWVACLYTVSSDSIYYASWAKGRFTISRTSSTTVTLQMTSLTAADTATYFCARDGDYFALWGPGTLVTVSS VL: DIVMTHTPASVEAAVGGTVTIKCQASQNIGGYLSWYQQKPGQRPKLLIYRASTLASGVPSRFKGSGSGTQFTLTISDLESADAATYYCQTYYYSGSSRYWAFGGGTEVVVKR
koff / s⁻¹: 3.48e-05

Data origin: patent US20220002432A1
